Listed here are variants together with their documented protein stability index.
B1: NET1 (parent)
chain: IKRTIRVLDVNNQSFREQEEPSNK

Variants of: B1
experimentNotes: protein stability index of a GFP-peptide fusion (GPS, HEK-293T) (PSI 1-6); higher = more stable;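 further: lentivirally expressed fusions sorted by FACS into six bins by GFP to DsRed ratio, PSI derived from sequencing read proportions per bin multiplied by bin number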
conditionDetails: c terminus: a fixed tail appended
Please give the numeric answer without any surrounding text.

GET /values?readout=protein stability index&item= T4P
3.89

Further cases:
GET /values?readout=protein stability index&item= E17V
2.8

GET /values?readout=protein stability index&item= K2G
4.51

GET /values?readout=protein stability index&item= K2A
3.74

GET /values?readout=protein stability index&item= E17Y
2.44

GET /values?readout=protein stability index&item= N12Q
4.08

GET /values?readout=protein stability index&item= R6D
4.77

GET /values?readout=protein stability index&item= V7I
4.02

GET /values?readout=protein stability index&item= R16M
3.41
